Where do these numbers come from? They come from PubChem BioAssay (NCATS).

- assay-summary: Cell Viability - Renal Proximal Tubule (AID 545);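 note: cells exposed to compound for 40 hours; 0% = DMSO only and -100% = 100 µM tamoxifen; nearly all actives have a fitted effect of over 40% in size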
- run-parameters: renal proximal tubule cells viability, primary cells of rat origin; at 91.7 µM (top of the series)
Results filed as inconclusive are left out.
activity change, negative = cytotoxicity reference
Report as a plain number; the unit % is understood.

Worked cases, answers included:
get_value(item= c1ccc2c(c1)[nH]c1ccccc12 , readout=activity change, negative = cytotoxicity) returns -10.3

In plain terms, O=[N+]([O-])c1cccc(Cl)c1Cl has a documented activity change, negative = cytotoxicity of -2.04

The compound listed as CC(=O)OC/C=C(\C)CCC=C(C)C has a reported activity change, negative = cytotoxicity of 3.05

More entries:
Per the record, C=Cc1ccccc1Cl has activity change, negative = cytotoxicity of -4.37

activity change, negative = cytotoxicity reading for Clc1cc(Cl)c(Cl)c(Cl)c1Cl : -5.98

Lab note: measured activity change, negative = cytotoxicity of C=C(C)C1CC=C(C)C(O)C1 (centres undefined) was 6.86

Record Cc1ccc([N+](=O)[O-])c(C)c1 . Reported activity change, negative = cytotoxicity: -0.903

For record Nc1ccc(Cl)cc1Cl the listed activity change, negative = cytotoxicity is -0.932

Lookup result for CCCCCCCCO ; measured activity change, negative = cytotoxicity: -1.75

Sample Cc1ccc([N+](=O)[O-])cc1N ; activity change, negative = cytotoxicity observed: -8.34

Looking up CC1=C2[C@H](/C=C(\C)C(=O)O)CC[C@@H](C)[C@H]2CC1 , I see its activity change, negative = cytotoxicity listed as -15.1

Given item c1ccc2scnc2c1 , the value recorded as its activity change, negative = cytotoxicity is -4.16

Documented activity change, negative = cytotoxicity of Cc1cccc([N+](=O)[O-])c1C : 0.624

Recorded activity change, negative = cytotoxicity (compound O=S(=O)(O)c1ccccc1 ): -1.46

Measured activity change, negative = cytotoxicity, O=C(/C=C/c1ccc(O)c(O)c1)O[C@@H](C(=O)O)[C@@H](OC(=O)/C=C/c1ccc(O)c(O)c1)C(=O)O : -5.23

For CCCCCCCCCCCCCCC1CO1 (centres undefined) the compound record lists activity change, negative = cytotoxicity as -7.28

The compound listed as COc1cc(/C=C/c2ccccc2)oc(=O)c1 shows activity change, negative = cytotoxicity equal to -15.2

GET /value?item= COC(=O)c1ccc(C=O)cc1 &field=activity change, negative = cytotoxicity returns -14.2

Lab note: measured activity change, negative = cytotoxicity of COCC(=O)O was -6.52

* * *

Below, each of the compounds is paired with its reported activity change % (negative = inhibition) value.
- system-tested: Thyroid hormone receptor beta (Homo sapiens) (UniProt P10828)
- Sequence (P10828 whole entry, looked up): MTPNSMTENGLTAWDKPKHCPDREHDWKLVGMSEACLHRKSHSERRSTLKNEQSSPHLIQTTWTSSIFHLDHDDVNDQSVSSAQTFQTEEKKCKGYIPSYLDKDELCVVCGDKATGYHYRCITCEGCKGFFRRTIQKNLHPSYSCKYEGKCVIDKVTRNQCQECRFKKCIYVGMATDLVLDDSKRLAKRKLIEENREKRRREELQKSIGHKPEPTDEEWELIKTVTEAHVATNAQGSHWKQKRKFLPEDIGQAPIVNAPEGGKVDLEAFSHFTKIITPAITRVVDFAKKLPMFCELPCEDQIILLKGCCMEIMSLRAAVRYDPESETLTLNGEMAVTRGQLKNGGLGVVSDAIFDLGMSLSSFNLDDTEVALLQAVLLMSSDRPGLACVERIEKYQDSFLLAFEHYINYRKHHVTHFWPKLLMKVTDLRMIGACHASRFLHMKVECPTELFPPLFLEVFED
- assay-summary: qHTS assay for small molecule antagonists of thyroid hormone receptor beta signaling (AID 588547);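 note: cells stimulated with 0.4 nM T3 agonist during compound exposure; % is set by controls: 0 for no effect and ±100 for the full control effect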
- run-parameters: TR-UAS-bla HEK293, beta-lactamase ratio, antagonist mode, 18 h
Records with an inconclusive call do not appear. Active and inactive are the calls of the source. The call rests on the fitted dose curve; in most records, active means well fitted inhibition curve with a large enough effect in the signal ratio, with a control signal flat (not every such curve was filed as active); inconclusive means small, poorly fitted or top-dose-only effect, or effect the other way, or a change in a side signal; inactive means flat fitted curve, though single readings scatter; the % refers to the signal ratio.

Check out these entries, answers already filled in.
Reported activity change % (negative = inhibition) for C[Si](C)(C)O[Si](C)(C)O[Si](C)(C)C was -8.82% (inactive)

# activity change % (negative = inhibition) (compound: CC(=O)OC/C=C(\C)CCC=C(C)C ) is 10.6% (inactive)

The reported value for COc1c2ccoc2cc2oc(=O)ccc12 in terms of activity change % (negative = inhibition) is 16.2% (inactive)

So, C/C=C\c1ccc(OC)cc1 ? Its activity change % (negative = inhibition) was 20.9% (inactive)

The compound O=C(O)CCCCCCCCC(=O)O showed activity change % (negative = inhibition) equal to 3.38% (inactive)

More entries:
Lookup result for C1OCOCO1 ; measured activity change % (negative = inhibition): 5.08% (inactive)

The recorded activity change % (negative = inhibition) for entry CCO equals -1.42% (inactive)

Recorded activity change % (negative = inhibition) (compound c1ccc2scnc2c1 ): 10.2% (inactive)

The reported activity change % (negative = inhibition) of the compound CN(C)CCCCCCN(C)C was 5.32% (inactive)

// activity change % (negative = inhibition) value for C=C(C)C1CC=C(C)C(O)C1 (stereo not drawn) : 0.818% (inactive)

Entry under test: CCCCCCCCOC(=O)c1cc(O)c(O)c(O)c1 . Its activity change % (negative = inhibition) was -6.19% (inactive)

# compound O=C1c2ccccc2C(=O)C1c1ccc2ccccc2n1 ; its activity change % (negative = inhibition) = -15.6% (inactive)

What the record says about C=CC(C)(CCC=C(C)C)OC(C)=O (stereo not drawn) : activity change % (negative = inhibition) is -2.58% (inactive)

* * *

- system-tested: Rap guanine nucleotide exchange factor 3 (Homo sapiens) (UniProt O95398)
- assay-summary: Counterscreen qHTS for agonist of cAMP-regulated guanine nucleotide exchange factor 3 (EPAC1) (AID 1645889); note: % of control where 0% means no effect; nearly all actives have a fitted effect of over 40% in size
- run-parameters: EPAC1 Rap1B-BODIPY-GDP exchange, fluorescence; series mostly up to 154 µM
Inconclusive results are not listed. Activity calls are given as the source filed them. Calls follow the shape of the dose curve; as a rule, active = well fitted activation curve with a large enough effect; inconclusive = small, poorly fitted or top-dose-only effect, or another doubt; inactive = no such curve, though single readings can be large or run the other way.
readout-kind: activation

Previously resolved entries follow.
Entry C=CCN1C(=O)/C(=C/C=C2/N(CC)c3ccc(S(=O)(=O)N(C)C)cc3N2CC)SC1=S , activation reported as 14.5% [at 30.8 µM] (inactive)

Lab note: CCCC(=O)N=C1SC2CS(=O)(=O)CC2N1c1ccc(CC)cc1 (stereo unspecified) gave activation of -1.33% [at 30.8 µM] (inactive)

In plain terms, CCCc1nc2ccccc2c(=O)n1/N=C/c1ccc(O)c(O)c1 has a documented activation of inactive

Field activation (entry Cc1ccccc1OCC(=O)Nc1ccccc1N1CCC(C)CC1 ) reads inactive

So for O=c1cc2oc3cc(O)c(O)cc3c(-c3ccccc3[N+](=O)[O-])c-2cc1O , the logged activation turned out to be inactive

***
So, CCc1nnc(NC(=O)c2ccc(-c3cccc(C(F)(F)F)c3)o2)s1 ? Its activation was 26.6% [at 30.8 µM] (inactive)

activation for N#C/C(=C/c1ccc(-c2ccc(S(N)(=O)=O)cc2)o1)c1nc2ccccc2s1 is -62% [at 30.8 µM] (inactive)

* * *

- assay-summary: qHTS for differential inhibitors of proliferation of Plasmodium falciparum line GB4 (AID 1816);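 note: parasite growth measured after 72 h incubation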
- run-parameters: Plasmodium falciparum GB4 proliferation inhibition; series mostly up to 28.7 µM
Inconclusive results are not listed. Activity calls are given as the source filed them. Calls come from the whole dose curve; as a rule, active = well fitted curve in the direction sought with a large enough effect; inconclusive = small, poorly fitted or top-dose-only effect, or another doubt; inactive = no such curve, though single readings can be large or run the other way.
Please answer using one outcome listed in yes (1) (active), no (0) (inactive)

Below, 3 compounds whose answers are already recorded.
Task item: Status in this test for CCCCN1CCC(COC(=O)c2cc(Cl)c(N)c3c2OCCO3)CC1 ?
Reply: yes (1)

Task item: What classification did O=S(=O)(O)C1CCNCC1 end up with in this test?
Reply: no (0)

Task item: Could you kindly confirm the outcome this assay logged for C[C@H]1c2cccc(O)c2C(O)=C2C(=O)[C@]3(O)C(O)=C(C(N)=O)C(=O)C(N(C)C)[C@@H]3[C@@H](O)C21 (stereo not given in full) ?
Reply: yes (1)

Further cases:
Task item: Name the outcome recorded for N#CC(Cc1ccc(O)c(O)c1)C(=O)N1CCc2ccccc21 (stereo not given) in the assay.
Reply: yes (1)

Task item: Which outcome did this test record for the compound Nc1nc(Cl)nc2c1ncn2[C@@H]1O[C@H](CO)[C@H](O)[C@H]1O ?
Reply: yes (1)

* * *

- assay-summary: qHTS assay for small molecule agonists of the antioxidant response element (ARE) signaling pathway measured by Nrf2-dependant transcriptional activity - cell viability counter screen (AID 720653); note: % is set by controls: 0 for no effect and ±100 for the full control effect
- run-parameters: ARE-bla HepG2 viability, CellTiter-Glo ATP luminescence, 16 h; active compounds read low
Inconclusive results are not listed. Activity calls are given as the source filed them. Calls follow the shape of the dose curve; as a rule, active = well fitted cell-killing curve with a large enough effect in the repeat runs; inconclusive = weak or mixed curves; inactive = flat fitted curve, though single readings scatter.
# max response values compiled below

Entry CCCCCCCCOC(=O)c1cc(O)c(O)c(O)c1 , max response reported as -10.2% (inactive)

Measured max response of C=C(C)C1CC=C(C)C(O)C1 (configuration not stated) : -2.07% (inactive)

Reported max response ( C=Cc1ccccc1Cl ) = -2.6% (inactive)

New cases:
Please fill in: max response reported for COc1c2ccoc2cc2oc(=O)ccc12 = 3.31% (inactive)

Form: molecule = CC1(C)S[C@@H]2[C@H](NC(=O)COc3ccccc3)C(=O)N2[C@H]1C(=O)O ; max response = -8.85% (inactive)

Lab note: measured max response of CCC(O)OC(O)CC (configuration not stated) was 1.91% (inactive) [middle of 4 runs]

The recorded max response for entry O=S(=O)(O)c1ccccc1 equals 11% (inactive)

* * *

- assay-summary: Cell Viability - NIH 3T3 (AID 541);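 note: cells exposed to compound for 40 hours; nearly all actives have a fitted effect of over 25% in size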
- run-parameters: NIH 3T3 cell viability, qHTS
Results filed as inconclusive are left out. Activity calls are given as the source filed them. Calls come from the whole dose curve; as a rule, active = well fitted cell-killing curve with a large enough effect; inconclusive = small, poorly fitted or top-dose-only effect; inactive = flat fitted curve, though single readings scatter.
Assign a class; possible classes are true (1) (active), false (0) (inactive)

Recorded results for 3 compounds are shown here.
Task item: I'd appreciate the recorded outcome for CC1=C2[C@H](/C=C(\C)C(=O)O)CC[C@@H](C)[C@H]2CC1 from this test.
Reply: false (0)

Task item: Hey, what did the test say about O=C(O)c1ccc(O)cc1O ?
Reply: false (0)

Task item: Hi team, can someone confirm the assay call for CC(C)=CCCC(C)CCO (configuration not stated) ?
Reply: false (0)

***
Task item: Record request — test call for NC1=NC(S)C2N=CN=C2N1 (configuration not stated)
Reply: true (1)

Task item: For this compound, state the assay outcome: CCCN(CCC)C(=O)SCC
Reply: false (0)

Task item: Which outcome was entered for the compound CCO[Si](CCCN)(OCC)OCC in this test?
Reply: false (0)

Task item: Can you look up the reported call for C=CC(=C)CCC=C(C)C for me?
Reply: false (0)

Task item: Check the results log: what was the call for Nc1ccc(Cl)cc1Cl ?
Reply: false (0)

Task item: Test call for this compound, please: CCCCCCCCCCCCCCC1CO1 (configuration not stated)
Reply: false (0)

Task item: Returns: the outcome recorded for Clc1cc(Cl)c(Cl)cc1Cl in this assay.
Reply: false (0)

Task item: What outcome does the record of this test show for CN(C)CCCCCCN(C)C ?
Reply: false (0)

Task item: Record request — test call for Cc1ccccc1C
Reply: false (0)

Task item: Please indicate how the test categorized COCC(=O)O .
Reply: false (0)

Task item: # lookup: test call for Cc1cccc([N+](=O)[O-])c1C
Reply: false (0)

Task item: Assay outcome for c1ccccc1 : what was it?
Reply: false (0)

Task item: Per the records of this test, what outcome belongs to O=NO ?
Reply: false (0)

Task item: State the result this test recorded for COc1ccc2nc(N)sc2c1 .
Reply: false (0)
